- target_or_system: Forkhead box protein C2 (FOXC2) (Homo sapiens, UniProt Q99958, N127A)
- Construct: recombinant His-tagged FOXC2 mutant 2, purified from HEK293T cells
- Sequence (Q99958 1-501 N127A): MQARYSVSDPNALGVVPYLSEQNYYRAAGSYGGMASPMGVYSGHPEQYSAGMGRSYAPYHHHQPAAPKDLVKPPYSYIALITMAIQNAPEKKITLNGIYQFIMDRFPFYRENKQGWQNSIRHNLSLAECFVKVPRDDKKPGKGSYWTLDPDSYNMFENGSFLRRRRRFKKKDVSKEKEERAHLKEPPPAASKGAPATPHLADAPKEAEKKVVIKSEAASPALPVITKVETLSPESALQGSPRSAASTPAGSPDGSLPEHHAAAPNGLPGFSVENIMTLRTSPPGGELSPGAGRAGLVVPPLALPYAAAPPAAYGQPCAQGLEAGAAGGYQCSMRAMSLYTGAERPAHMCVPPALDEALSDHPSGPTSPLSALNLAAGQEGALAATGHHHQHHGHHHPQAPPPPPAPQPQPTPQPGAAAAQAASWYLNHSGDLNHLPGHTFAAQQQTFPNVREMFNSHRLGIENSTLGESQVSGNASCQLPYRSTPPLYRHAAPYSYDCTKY
- test_name: BLI (Octet RED […], Ni-NTA sensors); KD at fit limit
pKd: −log10 of the molar value.
measured_quantity: pKd

// O=C1c2cccc(O)c2C(=O)c2c(O)cc(CO)cc21 : pKd value = > 12.00
